test system: Danio rerio Tg(wt1b:EGFP) embryo, pronephros; experiment: fraction of imaged embryos annotated as normal kidney; higher = less nephrotoxic; extreme values may be limits of the assay; details: 25 µM; exposure: 24-48 hpf
Where a name gives a salt, the structure may show the parent alone.
Classify by measured fraction of imaged embryos annotated as normal kidney: Yes if it is equal to or exceeds 0.9, No if it is smaller.

Answered examples (5):
Challenge: Please indicate if the recorded fraction of imaged embryos annotated as normal kidney for CC(C)CC(=O)N[C@H](C(=O)N[C@H](C(=O)N[C@@H](CC(C)C)[C@@H](O)CC(=O)N[C@@H](C)C(=O)N[C@@H](CC(C)C)[C@@H](O)CC(=O)O)C(C)C)C(C)C [Pepstatin A] meets or exceeds 0.9.
Response given: No

Challenge: Given the entry CCCNCC(O)COc1ccccc1C(=O)CCc1ccccc1 (centres undefined) [Propafenone hydrochloride] , answer whether its fraction of imaged embryos annotated as normal kidney meets or surpasses 0.9.
Response given: No

Challenge: Say whether CC(C)Nc1cccnc1N1CCN(C(=O)c2cc3cc(NS(C)(=O)=O)ccc3[nH]2)CC1 [Delavirdine] shows fraction of imaged embryos annotated as normal kidney of 0.9 or more.
Response given: No

Challenge: Given the entry Cc1noc(NS(=O)(=O)c2ccc(N)cc2)c1C [Sulfisoxazole] , answer whether its fraction of imaged embryos annotated as normal kidney meets or surpasses 0.9.
Response given: No

Challenge: Form field: fraction of imaged embryos annotated as normal kidney at least 0.9? Entry: OCCOCCN1CCN(C(c2ccccc2)c2ccc(Cl)cc2)CC1 (centres undefined) [Hydroxyzine dihydrochloride]
Response given: Yes

Continuing:
Challenge: Record O=C(O)c1cn(C2CC2)c2cc(N3CCNCC3)c(F)cc2c1=O [Ciprofloxacin hydrochloride monohydrate] ; criterion: fraction of imaged embryos annotated as normal kidney no lower than 0.9. Met?
Response given: No

---

Recorded pronephric angle neck segment for the following compounds
test system: Danio rerio Tg(wt1b:EGFP) embryo, pronephros; assay: pronephric angle neck segment to proximal convoluted tubule (mean of left and right), fold change vs DMSO control; higher = larger pronephric angle; conditions: 25 µM; exposure: 24-48 hpf
Where a name gives a salt, the structure may show the parent alone.
Give the value as a plain number.

Look over these answered cases.
Lab note: C[C@@](Cc1ccc(O)c(O)c1)(NN)C(=O)O [Carbidopa] gave pronephric angle neck segment of 1.05

Lab note: CCC(NC(C)C)C(O)c1ccc(O)c(O)c1 (stereo not given) [Isoetharine mesylate salt] gave pronephric angle neck segment of 1.01

Entry Nc1nc(N)c2nc(-c3ccccc3)c(N)nc2n1 [Triamterene] ; pronephric angle neck segment = 0.935

Further cases:
Noted for CC(=O)O[C@]1(C(C)=O)CC[C@H]2[C@@H]3C=C(C)C4=CC(=O)CC[C@]4(C)[C@H]3CC[C@@]21C [Megestrol acetate] : its pronephric angle neck segment reads 0.991

Sure, the documented pronephric angle neck segment for NS(=O)(=O)c1cc(Cl)c(Cl)c(S(N)(=O)=O)c1 [Dichlorphenamide] is 0.941

---

system: Danio rerio Tg(wt1b:EGFP) embryo, pronephros; assay: pronephric angle neck segment to proximal convoluted tubule (mean of left and right), fold change vs DMSO control; higher = larger pronephric angle; details: 25 µM; exposure: 24-48 hpf
Structures can show the parent of a compound that is named as a salt.
Item-by-item account of pronephric angle neck segment
The reply should be a number, written without any unit.

Answered examples (5):
Sample O=P(O)(O)C(O)(Cc1cccnc1)P(=O)(O)O [Risedronic acid monohydrate] , system: Danio rerio Tg(wt1b:EGFP) embryo, pronephros. Its pronephric angle neck segment is 0.975

Per the reported Danio rerio Tg(wt1b:EGFP) embryo, pronephros data, CC(NCCC(c1ccccc1)c1ccccc1)c1ccccc1 (configuration not stated) [Fendiline hydrochloride] has pronephric angle neck segment of 1

// assay Danio rerio Tg(wt1b:EGFP) embryo, pronephros, entry Nc1ccn([C@@H]2O[C@H](CO)[C@@H](O)[C@@H]2O)c(=O)n1 , pronephric angle neck segment value = 0.998

Lab note: molecule CC(C)NC(=N)NC(=N)Nc1ccc(Cl)cc1 [Proguanil hydrochloride] tested on Danio rerio Tg(wt1b:EGFP) embryo, pronephros; recorded pronephric angle neck segment was 1.02

Recorded pronephric angle neck segment for CC(=O)NS(=O)(=O)c1ccc(N)cc1 [Sulfacetamide sodic hydrate] on Danio rerio Tg(wt1b:EGFP) embryo, pronephros was 0.989

***
Value sought: pronephric angle neck segment, system Danio rerio Tg(wt1b:EGFP) embryo, pronephros, item Cc1cc2c(s1)Nc1ccccc1N=C2N1CCN(C)CC1 . Result: 1.01

Value sought: pronephric angle neck segment, system Danio rerio Tg(wt1b:EGFP) embryo, pronephros, item CC(C)(C)c1ccc(C(O)CCCN2CCC(C(O)(c3ccccc3)c3ccccc3)CC2)cc1 (configuration not stated) . Result: 1.02

Lab entry: Danio rerio Tg(wt1b:EGFP) embryo, pronephros assay, molecule CC(=O)N(O)CCCCCNC(=O)CCC(=O)N(O)CCCCCNC(=O)CCC(=O)N(O)CCCCCN [Deferoxamine mesylate] , pronephric angle neck segment = 1.01

---

system: Danio rerio Tg(wt1b:EGFP) embryo, pronephros; test: pronephric angle neck segment to proximal convoluted tubule (mean of left and right), fold change vs DMSO control; higher = larger pronephric angle; conditions: 25 µM; exposure: 24-48 hpf
Counter-ions that a name gives are not always drawn.
metric: pronephric angle neck segment
// return just the number, without any unit appended

Below: 5 compounds and their reported pronephric angle neck segment.
Form: compound = Nc1ccc(S(=O)(=O)Nc2cnc3ccccc3n2)cc1 [Sulfaquinoxaline sodium salt] ; pronephric angle neck segment = 1.09

# pronephric angle neck segment of C=CCOC(Cn1ccnc1)c1ccc(Cl)cc1Cl (configuration not stated) = 1.1

O=C(NC(Cc1cc(=O)[nH]c2ccccc12)C(=O)O)c1ccc(Cl)cc1 (configuration not stated) [Rebamipide] yielded pronephric angle neck segment of 0.972

Value of pronephric angle neck segment reported for the compound Cc1cn([C@H]2C=C[C@@H](CO)O2)c(=O)[nH]c1=O is 0.973

Recorded pronephric angle neck segment (compound NCCc1ccc(O)c(O)c1 [Dopamine hydrochloride] ): 1.01

New cases:
Please fill in: pronephric angle neck segment reported for Nc1c2ccccc2nc2ccccc12 = 0.996

pronephric angle neck segment reading for N/C(=N\C(=O)c1nc(Cl)c(N)nc1N)NCc1ccccc1 [Benzamil hydrochloride] : 0.98

---

Each record here notes measured glomerular width.
system: Danio rerio Tg(wt1b:EGFP) embryo, pronephros; assay: glomerular width (mean of left and right), fold change vs DMSO control; higher = wider glomerulus; settings: 25 µM; exposure: 24-48 hpf
Where a name gives a salt, the structure may show the parent alone.

Entry N=C(N)NCC1COC2(CCCCC2)O1 (stereo not drawn) [Guanadrel sulfate] , Danio rerio Tg(wt1b:EGFP) embryo, pronephros data, glomerular width value: 1.02

Danio rerio Tg(wt1b:EGFP) embryo, pronephros glomerular width of O=C(O)CCCC[C@@H]1SC[C@@H]2NC(=O)N[C@@H]21 is 0.993

Next molecule, please.
Danio rerio Tg(wt1b:EGFP) embryo, pronephros assay, molecule CN1CCN(CCCN2c3ccccc3Sc3ccc(S(=O)(=O)N(C)C)cc32)CC1 [Thioproperazine dimesylate] , recorded glomerular width = 0.988

---

tested on: Danio rerio Tg(wt1b:EGFP) embryo, pronephros; assay: pronephric angle neck segment to proximal convoluted tubule (mean of left and right), fold change vs DMSO control; higher = larger pronephric angle; conditions: 25 µM; exposure: 24-48 hpf
Counter-ions that a name gives are not always drawn.
metric: pronephric angle neck segment
# answer = number (no unit)

Solved cases (6 shown):
Reading of pronephric angle neck segment for CCOC(=O)OC(C)OC(=O)[C@@H]1N2C(=O)[C@@H](NC(=O)[C@H](N)c3ccccc3)[C@H]2SC1(C)C (some centres not stated) [Bacampicillin hydrochloride] with Danio rerio Tg(wt1b:EGFP) embryo, pronephros: 0.968

The compound CCOC(=O)C(C)(C)Oc1ccc(Cl)cc1 [Clofibrate] on Danio rerio Tg(wt1b:EGFP) embryo, pronephros: pronephric angle neck segment was 1.66

Test item Nc1nc2[nH]cc(CCc3ccc(C(=O)N[C@@H](CCC(=O)O)C(=O)O)cc3)c2c(=O)[nH]1 [Pemetrexed disodium] ; Danio rerio Tg(wt1b:EGFP) embryo, pronephros; reported pronephric angle neck segment was 0.972

Reported Danio rerio Tg(wt1b:EGFP) embryo, pronephros pronephric angle neck segment for item C[C@H]1[C@H](NC(=O)/C(=N\OC(C)(C)C(=O)O)c2csc(N)n2)C(=O)N1S(=O)(=O)O was 0.963

Noted pronephric angle neck segment for Nc1nc(=S)c2ncn([C@@H]3O[C@H](CO)[C@@H](O)[C@H]3O)c2[nH]1 , tested on Danio rerio Tg(wt1b:EGFP) embryo, pronephros: 1.03

Entry CC1CC(OC(=O)c2ccccc2O)CC(C)(C)C1 (configuration not stated) [Homosalate] under Danio rerio Tg(wt1b:EGFP) embryo, pronephros had pronephric angle neck segment of 1.15

# input for lookup
I looked up COc1ccc(C(=O)NCc2ccc(OCCN(C)C)cc2)cc1OC [Itopride] and its pronephric angle neck segment for Danio rerio Tg(wt1b:EGFP) embryo, pronephros was 1.06
